B1: FBF1 (parent)
chain: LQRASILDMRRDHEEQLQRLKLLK

- Variants of: B1
- Assay protocol: protein stability index of a GFP-peptide fusion (GPS, HEK-293T) (PSI 1-6); higher = more stable;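 note: lentivirally expressed fusions sorted by FACS into six bins by GFP to DsRed ratio, PSI derived from sequencing read proportions per bin multiplied by bin number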
- Particulars: c terminus: a fixed tail appended
Endpoint: protein stability index

- Variant annotation: "Q2L"
  Result value: 2.25
- Variant annotation: "Q18I"
  Result value: 2.47
- Variant annotation: "Q18H"
  Result value: 3.02
- Variant annotation: "Q16E"
  Result value: 3.64
- Variant annotation: "Q2K"
  Result value: 2.93
- Variant annotation: "H13D"
  Result value: 3.69
- Variant annotation: "Q2E"
  Result value: 3.44
- Variant annotation: "L23Y"
  Result value: 3.12
- Variant annotation: "H13W"
  Result value: 2.38
- Variant annotation: "H13S"
  Result value: 3.84
- Variant annotation: "R19N"
  Result value: 3.89
- Variant annotation: "S5N"
  Result value: 3.65
- Variant annotation: "R11P"
  Result value: 3.67
- Variant annotation: "Q16C"
  Result value: 3.09
- Variant annotation: "M9D"
  Result value: 3.4
- Variant annotation: "R3M"
  Result value: 3.02
- Variant annotation: "S5V"
  Result value: 2.92
- Variant annotation: "H13V"
  Result value: 2.46
- Variant annotation: "H13L"
  Result value: 2.36
- Variant annotation: "K24S"
  Result value: 2.82
- Variant annotation: "L22D"
  Result value: 3.63
- Variant annotation: "Q16D"
  Result value: 4.02
- Variant annotation: "S5P"
  Result value: 3.48
- Variant annotation: "L7N"
  Result value: 3.99
- Variant annotation: "E15M"
  Result value: 3.12
- Variant annotation: "E14W"
  Result value: 2.69
- Variant annotation: "D12Y"
  Result value: 3.37
- Variant annotation: "L20W"
  Result value: 2.78
- Variant annotation: "R3F"
  Result value: 2.8
- Variant annotation: "R11N"
  Result value: 3.1
- Variant annotation: "M9Q"
  Result value: 3.86
- Variant annotation: "A4W"
  Result value: 2.28
- Variant annotation: "R10S"
  Result value: 3.9
- Variant annotation: "E15D"
  Result value: 3.34
- Variant annotation: "A4I"
  Result value: 3.13
- Variant annotation: "D12A"
  Result value: 3.41
- Variant annotation: "S5A"
  Result value: 3.59
- Variant annotation: "E15L"
  Result value: 2.56
- Variant annotation: "L20A"
  Result value: 3.79
- Variant annotation: "M9P"
  Result value: 3.93
- Variant annotation: "K24H"
  Result value: 3.44
- Variant annotation: "D12N"
  Result value: 3.78
- Variant annotation: "R10G"
  Result value: 3.79
- Variant annotation: "R10L"
  Result value: 2.5
- Variant annotation: "E14I"
  Result value: 3.08
- Variant annotation: "E15P"
  Result value: 3.22
- Variant annotation: "D8E"
  Result value: 3.86
- Variant annotation: "H13Y"
  Result value: 2.83
- Variant annotation: "L22G"
  Result value: 3.44
- Variant annotation: "Q2S"
  Result value: 3.15
- Variant annotation: "L1P"
  Result value: 3.87
- Variant annotation: "M9E"
  Result value: 3.72
- Variant annotation: "L1H"
  Result value: 3.33
- Variant annotation: "K21M"
  Result value: 3.55
- Variant annotation: "D12M"
  Result value: 2.81
- Variant annotation: "Q2G"
  Result value: 3.79
- Variant annotation: "M9R"
  Result value: 3.72
- Variant annotation: "R11K"
  Result value: 3.7
- Variant annotation: "L7R"
  Result value: 3.6
- Variant annotation: "R10N"
  Result value: 3.91
- Variant annotation: "L1F"
  Result value: 3.19
- Variant annotation: "L1R"
  Result value: 3.3
- Variant annotation: "Q16Y"
  Result value: 2.75
- Variant annotation: "I6Y"
  Result value: 3.58
- Variant annotation: "E15A"
  Result value: 3.4
- Variant annotation: "Q18C"
  Result value: 3.1
- Variant annotation: "L23F"
  Result value: 3.88
- Variant annotation: "Q16K"
  Result value: 3.61
- Variant annotation: "Q16F"
  Result value: 1.73
- Variant annotation: "E15N"
  Result value: 2.91
- Variant annotation: "R19I"
  Result value: 2.11
- Variant annotation: "I6T"
  Result value: 3.66
- Variant annotation: "H13E"
  Result value: 4.15
- Variant annotation: "R10K"
  Result value: 3.97
- Variant annotation: "L23A"
  Result value: 4.14
- Variant annotation: "E14A"
  Result value: 3.32
- Variant annotation: "D12S"
  Result value: 3.31
- Variant annotation: "L7V"
  Result value: 3.97
- Variant annotation: "D8W"
  Result value: 2.5
- Variant annotation: "S5I"
  Result value: 2.34
- Variant annotation: "H13P"
  Result value: 3.33
- Variant annotation: "K24E"
  Result value: 3.52
- Variant annotation: "M9A"
  Result value: 3.84
- Variant annotation: "L7K"
  Result value: 3.42
- Variant annotation: "Q16T"
  Result value: 3.45
- Variant annotation: "L20M"
  Result value: 4
- Variant annotation: "L20V"
  Result value: 3.79
- Variant annotation: "E15Y"
  Result value: 2.84
- Variant annotation: "Q18P"
  Result value: 3.26
- Variant annotation: "R11F"
  Result value: 2.89
- Variant annotation: "E14G"
  Result value: 3.12
